The measured values listed here are drawn from patent US20260098080A1.

Reported values of Ki for individual entries
- subject_of_test: T1, human MASP-2cf CCP1-CCP2-SP (human, UniProt O00187 298-686, limits assumed)
- T1 construct: domain: CCP1-CCP2-SP; also called human MASP-2 catalytic fragment
- run_description: enzyme inhibition, tight-binding fit
Where no end group is shown, it is not given here.
recorded_metric: Ki

binder: EVO22 (designed binder, not fully specified; cysteine pairing not given here, Modified TFPI-D2 Kunitz domain; made as m1) KPDFCFLENDPGPCRALKRRYFYNNQTKQCERFYYGGCLGNMNNFVTLEECKNICEDG
result: 0.15 nM
//
binder: EVO2 (designed binder, not fully specified; ends and bridges not checked, Modified Kunitz domain TFPI-D2 of human TFPI-1; recombinant from E. coli, freed from a His6-S100A4 fusion by TEV protease; also called TFMI-2b) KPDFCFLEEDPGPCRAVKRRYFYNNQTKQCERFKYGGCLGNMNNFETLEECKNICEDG
result: 0.65 nM
//
binder: EVO222 (designed binder, not fully specified; cysteine pairing not given here, Modified TFPI-D2 Kunitz domain; made as m1) KPDFCFLENDPGLCRAAAVRYFYNNQTKQCERFYYGGCLGNMNNFVTLEECKNICEDG
result: 0.1 nM
//
binder: EVO221 (designed binder, not fully specified; cysteine pairing not given here, Modified TFPI-D2 Kunitz domain; made as m1) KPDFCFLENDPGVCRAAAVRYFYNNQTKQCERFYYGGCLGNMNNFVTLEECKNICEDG
result: 0.19 nM
